// provenance: ChEMBL document CHEMBL1201862

Tested on: 786-0
ASSAY NOTES: NCI tumour cell line growth inhibition, 48 h
Activity calls are given as the source filed them. Cut-off read from the data, not from the text of the source: active = GI50 up to about 1.1 µM and inactive = higher. Where a SMILES comes first, the peptide text is derived from it. The star is where a group is joined. Fmoc = O=C(OCC1c2ccccc2-c2ccccc21)*; OtBu = CC(C)(C)O*
// reported GI50 for each item listed
MEASURED PROPERTY: GI50

- COMPOUND: "ON[C@@H]1C=C[C@H](n2cnc3c(NC4CC4)ncnc32)C1"
  READING: "> 100 µM (inactive)"
- COMPOUND: "CCOC(=O)C1(C)CCCc2sc(N)c(C#N)c21 (stereo not given)"
  READING: "> 100 µM (inactive)"
- COMPOUND: "CN(C)C(=O)C(F)(F)C(c1ccccc1Br)C1C(=O)N(C)C(=O)N(C)C1=O (stereo not given)"
  READING: "> 100 µM (inactive)"
- COMPOUND: "O=C(O)c1c(CC(Cc2ccc3c(c2)CCCC3)C(=O)O)ccc2c1CCCC2 (stereo not given)"
  READING: "> 100 µM (inactive)"
- COMPOUND: "[N-]=[N+]=NC1C2CC3CC(C2)CC1C3 (stereo not given)"
  READING: "> 100 µM (inactive)"
- COMPOUND: "Nc1ccc(Sc2c3ccccc3nc3ccccc23)cc1"
  READING: "5.48 µM (inactive)"
- COMPOUND: "CC(C)C(NC(=O)OCC1c2ccccc2-c2ccccc21)C(=O)NC(CCC(=O)OC(C)(C)C)C(=O)OC(C)(C)C (stereo not given) (Fmoc-Val-Glu(OtBu)-OtBu; configuration not given here)"
  READING: "> 100 µM (inactive)"
- COMPOUND: "NCCCCNCCCN1CC1"
  READING: "0.359 µM (active)"
- COMPOUND: "O=C(O)c1ccc(Nc2nc3ccccc3nc2-c2cccs2)cc1"
  READING: "71.9 µM (inactive)"
- COMPOUND: "CCOC(=O)C1Oc2ccc([N+](=O)[O-])cc2C1(C)O (stereo not given)"
  READING: "> 100 µM (inactive)"

---

As shown below, each of these molecules has a reported GI50 value.
System: NCI-H226
ASSAY NOTES: NCI tumour cell line growth inhibition, 48 h
The source made the active and inactive calls. No stated cut-off is given here; in the data, active = GI50 up to about 1.1 µM and inactive = higher.
MEASURED PROPERTY: GI50

- MOLECULE: "Cn1c2c(c3ccccc31)CC(=O)N1CCCCC1C21OCCO1 (stereo unspecified)"
  READING: "> 100 µM (inactive)"
- MOLECULE: "CC(=O)/N=C1/N(/C=C2\\C(=O)Oc3ccccc3C2=O)C(=O)/C(=C/c2cccc(Cl)c2Cl)N1C"
  READING: "24 µM (inactive)"
- MOLECULE: "COc1ccc(-c2oc3cc(OC)c(OC)c(OC)c3c(=O)c2OC)cc1OC"
  READING: "> 100 µM (inactive)"
- MOLECULE: "COC(=O)[C@H]1[C@H](C(=O)OC)[C@@H](C)c2c(ccc3c2[nH]c2ccccc23)[C@@H]1C"
  READING: "> 100 µM (inactive)"
- MOLECULE: "Cc1c(C(=O)CC(=O)C(=O)Nc2cc(Cl)ccc2Cl)[n+]([O-])c2ccccc2[n+]1[O-]"
  READING: "> 100 µM (inactive)"
- MOLECULE: "CC(C)(C)COS(=O)OCC(C)(C)C"
  READING: "> 100 µM (inactive)"
- MOLECULE: "CC1(C)[C@@H]2C[C@H]1c1cnc(-c3ccccn3)cc1C2CCCCC[C@@H]1c2cc(-c3ccccn3)ncc2[C@@H]2C[C@H]1C2(C)C (stereo partly specified)"
  READING: "1.23 µM (inactive)"
- MOLECULE: "C[C@@H](CN1CC(=O)NC(=O)C1)N1CC(=O)NC(=O)C1"
  READING: "101 µM (inactive)"
- MOLECULE: "COc1cc([C@@H]2c3cc4c(cc3[C@@H](NC(=O)c3cccc([N+](=O)[O-])c3)C3COC(=O)[C@@H]32)OCO4)cc(OC)c1O (stereo partly specified)"
  READING: "0.127 µM (active)"
- MOLECULE: "Clc1ccc(N/N=C(\\c2ccccc2)c2ccccn2)nc1"
  READING: "0.0891 µM (active)"
- MOLECULE: "Nc1c(S(=O)(=O)c2ccccc2)c2nc3ccccc3nc2n2c1nc1ccccc12"
  READING: "37.5 µM (inactive)"
- MOLECULE: "CN(C)c1ccc(-c2[nH]c(=O)c3ccccc3[n+]2C)cc1"
  READING: "40.6 µM (inactive)"
- MOLECULE: "CCOC(=O)C1Oc2ccc([N+](=O)[O-])cc2C1(C)O (stereo unspecified)"
  READING: "> 100 µM (inactive)"
- MOLECULE: "COc1cc2cc3c4c(cc(OC)c(OC)c4c2cc1OC)CCN3"
  READING: "> 100 µM (inactive)"
- MOLECULE: "CC(C)CC(N)C(=O)NC(C(=O)NC(CCCNC(=N)N)C(=O)NC(CS)C(=O)NC1CSCC(C(=O)NC(Cc2ccccc2)C(=O)NC(C(=O)NC(CCCNC(=N)N)C(=O)O)C(C)C)NC(=O)C2CCCN2C(=O)C(CCCCN)NC(=O)C2CCCN2C(=O)C2CCCN2C(=O)C(Cc2ccc(O)cc2)NC(=O)C(CO)NC(=O)C(CCCCN)NC(=O)C(C(C)O)NC(=O)C(Cc2c[nH]c3ccccc23)NC1=O)C(C)C (stereo unspecified)"
  READING: "> 25 µM (inactive)"
- MOLECULE: "CCCCOC(=O)C(O)Cc1ccoc1 (stereo unspecified)"
  READING: "> 100 µM (inactive)"
- MOLECULE: "C[n+]1c2ccc(Cl)cc2nc2cc(-c3ccccc3)ccc21"
  READING: "19.1 µM (inactive)"
- MOLECULE: "COc1nc(C)nc2sc3c(c12)CCCC3"
  READING: "> 100 µM (inactive)"
- MOLECULE: "COc1ccc(C(OCC2OC(n3cc(C)c(=O)[nH]c3=O)CC2n2cc(Cn3cc(Br)c(=O)[nH]c3=O)nn2)(c2ccccc2)c2ccccc2)cc1 (stereo unspecified)"
  READING: "> 100 µM (inactive)"
- MOLECULE: "CCOC(OC1=C(C#N)CCC1)C(CC)[Se]c1ccccc1 (stereo unspecified)"
  READING: "19.2 µM (inactive)"
- MOLECULE: "C=C1CCC(CC[C@@H]2CC[C@]3(OC2)O[C@@]2(O)CC[C@]3(C)OC2(C)C)C(C)(C)[C@H]1C/C=C1/C(=O)OC[C@@H]1O (stereo partly specified)"
  READING: "2.29 µM (inactive)"
- MOLECULE: "CC(C)/C(Cl)=N/OC(=O)Nc1ccc(Cl)c(Cl)c1"
  READING: "18.1 µM (inactive)"
- MOLECULE: "Nc1nc(SCc2ccccc2)c2ncn(Cc3ccccc3)c2n1"
  READING: "> 100 µM (inactive)"
- MOLECULE: "COC(=O)C1CCC2(C)[C@H](CCC3O[C@]32C)[C@@]1(C)CC(=O)c1ccoc1 (stereo partly specified)"
  READING: "> 100 µM (inactive)"
- MOLECULE: "Cc1[nH]c2ncn3ncnc3c2c1Cc1ccccc1"
  READING: "> 100 µM (inactive)"
- MOLECULE: "CC(C)(CO)NC1=C(Cl)C(=O)c2c(O)ccc(O)c2C1=O"
  READING: "2.16 µM (inactive)"
- MOLECULE: "CC(=O)/C(=C/NC(=S)c1cccnc1)C(=O)Nc1ccccc1C"
  READING: "> 100 µM (inactive)"
- MOLECULE: "O=C1c2ccccc2C(=O)N1CCCCNOCCCN1C(=O)c2ccccc2C1=O"
  READING: "> 100 µM (inactive)"
- MOLECULE: "CCOc1ccccc1NC(=O)CCc1n[nH]c(=S)o1"
  READING: "> 100 µM (inactive)"
- MOLECULE: "CN(C)CCCNC(=O)c1cc(NC(=O)c2cc(NC(=O)[C@@H]3C[C@H]3C(=O)Nc3cc(C(=O)Nc4cc(C(=O)NCCCN(C)C)n(C)c4)n(C)c3)cn2C)cn1C"
  READING: "> 100 µM (inactive)"
- MOLECULE: "O=C1O[C@]2(c3ccccc3)C(c3ccccc3)=C[C@]2(C(=O)c2ccccc2)C1=O"
  READING: "29.9 µM (inactive)"
- MOLECULE: "OC(Cc1cc(CC(O)(C(F)(F)F)C(F)(F)F)nc(CC(O)(C(F)(F)F)C(F)(F)F)c1)(C(F)(F)F)C(F)(F)F"
  READING: "2.75 µM (inactive)"
- MOLECULE: "CO[C@H]1C[C@H](n2cc(C)c(=O)[nH]c2=O)O[C@@H]1CO"
  READING: "> 100 µM (inactive)"
- MOLECULE: "CCOCc1cc(=O)c2c(O)cc3c(c2o1)CCC(C)(C)O3"
  READING: "> 100 µM (inactive)"
- MOLECULE: "COc1ccc(N2C(=O)C(=O)N(c3ccccc3[N+](=O)[O-])C2=S)cc1"
  READING: "28.2 µM (inactive)"
- MOLECULE: "N#Cc1c(NC(=O)CCC(=O)O)ccc2ccccc12"
  READING: "> 100 µM (inactive)"
